Target: Gal(a1-3)Gal(b1-3)GlcNAc(b1-2)Man(a1-3)[Gal(a1-3)Gal(b1-3)GlcNAc(b1-2)Man(a1-6)]Man(b1-4)GlcNAc(b1-4)GlcNAc
Experiment: glycan array binding signal (z-score within array); higher = stronger binding
Settings: glycan notation: IUPAC condensed, linker removed
About 410 targets per protein were measured; listed, in parts, are those with the strongest signals and a random draw of the rest.

binder	glycan array binding signal (z-score)
Nc3LysM (protein) QFTVPPDTTAEPNTIKTCTWWHVAGSGDSCTSIASTYGITSEQFARWDMETTDSPKNPSVATACKLTVGNSYCIENNFGQDDPPTPSISSSTLIGTATTSTTASTTTGNGISTPTPIQEGMETATTTTSSGNGITTPTPTQAGMETVGNCDRFHLVKSGDQCGTIASTYGITLANFYSWNPAVGTSCQSLWLDTYVCVRTIGFVPPKTTTTTTKKPTSTTSAGGVATPTPTQPGMETVSGCKKFHKGRGNVSTVASGDQCGTIATRYGISLANFYSWNPAVGSSCQTLWLDYYVCVGR	0.295

Taken from the supplement of paper PMC8728848.
